# System: HepaRG
# method: LDH release cytotoxicity, % of total lysis control; higher = more cytotoxic
# assay_context: 10 µM; 48 h
Structures can show the parent of a compound that is named as a salt.
Listed next: entries and their corresponding LDH release cytotoxicity.

* CN(C)C(=S)SSC(=S)N(C)C [Thiram] | -1.86%

Ask: Need LDH release cytotoxicity of CCCCCCCCCCCCOS(=O)(=O)O [Sodium dodecyl sulfate] , thanks.
Result: -1.05%

Ask: Need LDH release cytotoxicity of CC1=C(C)S(=O)(=O)CCS1(=O)=O [Dimethipin] , thanks.
Result: -2.6%

Ask: Need LDH release cytotoxicity of C=CCC1=C(C)C(OC(=O)C2C(C=C(C)C)C2(C)C)CC1=O (centres undefined) [Allethrin] , thanks.
Result: -1.69%

Ask: Need LDH release cytotoxicity of COC(=O)NC(=S)Nc1ccccc1NC(=S)NC(=O)OC [Thiophanate-methyl] , thanks.
Result: 0.238%

Ask: Need LDH release cytotoxicity of CC12C=CC3=C4CCC(=O)C=C4CCC3C1CCC2O (stereo not drawn) [17beta-Trenbolone] , thanks.
Result: -1.02%

Ask: Need LDH release cytotoxicity of CCOC(=O)C(C)Oc1ccc(Oc2nc3ccc(Cl)cc3o2)cc1 (centres undefined) [Fenoxaprop-ethyl] , thanks.
Result: -2.46%

Ask: Need LDH release cytotoxicity of COCCOCC(CC1(C(=O)NC2CCC(C(=O)O)CC2)CCCC1)C(=O)Oc1ccc2c(c1)CCC2 (centres undefined) [Candoxatril] , thanks.
Result: -0.79%

Ask: Need LDH release cytotoxicity of NC(Cc1cc(I)c(Oc2ccc(O)c(I)c2)c(I)c1)C(=O)O (centres undefined) [3,5,3'-Triiodothyronine] , thanks.
Result: -3.58%
